Catalogue of interaction score values
- TESTED SYSTEM: T1, 4H883-bH
- T1 chain: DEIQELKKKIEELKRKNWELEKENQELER
- TEST DETAILS: two-hybrid library CCNG1;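 also: natural log of median RNA to DNA barcode read ratio; higher means stronger binding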

Consider the reported interaction score for these binders:
                                     binder  assay_value
0  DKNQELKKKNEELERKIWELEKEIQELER [4H4001-bH]        -1.67
1  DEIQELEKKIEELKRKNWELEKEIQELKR [4H370-bH]        -0.56
2  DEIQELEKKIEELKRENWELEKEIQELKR [4H338-bH]       0.0489
3  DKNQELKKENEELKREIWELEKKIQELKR [4H3782-bH]       -0.532

Attention now shifts to the item below.
What value of interaction score has been reported for the following binder? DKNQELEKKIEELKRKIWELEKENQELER [4H3427-bH] -1.42
